- Test system: P388 mouse leukemia cells
- experimental parameters: 92 h
Where a SMILES comes first, the peptide text is derived from it. [ ]: non-standard residue; d: D form. The star is where a group is joined. NHCH2CH2OH = OCCN*; For = O=C*
assay readout: cell viability/% (%)
Give just the number in %; leave the unit off.

The compound CC(C)C[C@@H](NC(=O)[C@H](C)NC(=O)CNC(=O)[C@@H](NC=O)C(C)C)C(=O)N[C@@H](C)C(=O)N[C@@H](C(=O)N[C@H](C(=O)N[C@@H](C(=O)N[C@@H](Cc1c[nH]c2ccccc12)C(=O)N[C@@H](C(=O)N[C@@H](Cc1c[nH]c2ccccc12)C(=O)N[C@@H](C(=O)N[C@@H](Cc1c[nH]c2ccccc12)C(=O)N[C@@H](C(=O)N[C@@H](Cc1c[nH]c2ccccc12)C(=O)NCCO)C(C)C)C(C)C)C(C)C)C(C)C)C(C)C)C(C)C [compound 9610] (For-VGA[dL]A[dV]V[dV]W[dV]W[dV]W[dV]W-NHCH2CH2OH) , tested on P388 mouse leukemia cells, showed cell viability/% of 100.0
